Attribute: concentration at 3 h
assay-details: in vivo
condition-summary: FVB hSCN9a Tg, mouse, plasma, po, 30 mg/kg
Give the value, in units of µM, as a plain number.

Query: Item under review: CS(=O)(=O)Nc1nnc2cc(OCC34CC5CC(CC(C5)C3)C4)c(C3CC3)cn12 . Reported concentration at 3 h?
Result: 46.2

Please look at the following compound next.
Query: Item under review: CS(=O)(=O)Nc1nnc2cc(COc3cc(Cl)cc(Cl)c3)c(C3CC3)cn12 . Reported concentration at 3 h?
Result: 18.8

* * *

assay-details: in vivo
condition-summary: beagle, dog, iv, 0.5 mg/kg
assay-metric: Vd (L/kg)
Give the value, in units of L/kg, as a plain number.

Query: Item under review: CS(=O)(=O)Nc1nnc2cc(OCC34CC5CC(CC(C5)C3)C4)c(C3CC3)cn12 . Reported Vd?
Result: 0.4

* * *

assay-details: physchem
condition-summary: 1-octanol/PBS, pH 7.4
assay-metric: logD

Here are 4 compounds together with their reported answers.
Query: Item under review: CC(C)c1cn2c(NS(C)(=O)=O)nnc2cc1OCC12CC3CC(CC(C3)C1)C2 . Reported logD?
Result: 2.9

Query: Item under review: CNS(=O)(=O)Nc1nnc2cc(OCCC34CC5CC(CC(C5)C3)C4)c(C3CC3)cn12 . Reported logD?
Result: 3.7

Query: Item under review: O=S(=O)(Nc1nnc2cc(OCC34CC5CC(CC(C5)C3)C4)c(C3CC3)cn12)C1CCC1 . Reported logD?
Result: 4.7

Query: Item under review: CS(=O)(=O)Nc1nnc2cc(OCC34CC5CC(CC(C5)C3)C4)c(C3CC3)cn12 . Reported logD?
Result: 3.5

Next:
Query: Item under review: CS(=O)(=O)Nc1nnc2cc(OCC34CC5CC(CC(C5)C3)C4)c(C3CCC3)cn12 . Reported logD?
Result: 3.9

* * *

assay-details: in vivo
condition-summary: brain/plasma
Attribute: Kp

Query: Item under review: CS(=O)(=O)Nc1nnc2cc(COc3cc(Cl)cc(Cl)c3)c(C3CC3)cn12 . Reported Kp?
Result: < 0.004

Please look at the following compound next.
Query: Item under review: CS(=O)(=O)Nc1nnc2cc(OCC34CC5CC(CC(C5)C3)C4)c(C3CC3)cn12 . Reported Kp?
Result: > 0.17

* * *

assay-details: physchem
condition-summary: 1-octanol/PBS, pH 7.4
assay-metric: logD
API note: the answer field is a bare number with no unit suffix.

Query: Item under review: CS(=O)(=O)Nc1nnc2cc(OCC34CC5CC(CC(C5)C3)C4)c(Br)cn12 . Reported logD?
Result: 2.8

Query: Item under review: CS(=O)(=O)Nc1nnc2cc(COc3cc(Cl)cc(Cl)c3)c(C3CC3)cn12 . Reported logD?
Result: 1.9

Query: Item under review: CS(=O)(=O)Nc1noc2cc(COc3ccc(Cl)c(Cl)c3)c(C3CC3)cc12 . Reported logD?
Result: 2.4

Query: Item under review: CNS(=O)(=O)Nc1nnc2cc(OCC34CC5CC(CC(C5)C3)C4)c(C3CC3)cn12 . Reported logD?
Result: 3.2

Please look at the following molecule next.
Query: Item under review: O=S(=O)(Nc1nnc2cc(OCC34CC5CC(CC(C5)C3)C4)c(C3CC3)cn12)C(F)F . Reported logD?
Result: 3.1

The reported numbers originate from ChEMBL document CHEMBL4251746.
